- method notes: Pharmacokinetic study in mice
- Type: in vivo
- measurement context: mouse, po, 0.5 mg/kg; male CD-1 mice, p.o. 0.5 mpk, whole blood
attribute measured: Cmax (ng/mL)
Form entry: value (ng/mL) — number only.

### Prompt Dear colleague, I am looking for the recorded Cmax of the following molecule: CO[C@@H](C)c1ncc(-c2nnc(C3CCN(C4COC4)CC3)o2)cc1-c1c2c3cc(ccc3n1CC(F)(F)F)-c1csc(n1)C[C@H](NC(=O)C1[C@@H](C)[C@H]1C)C(=O)N1N[C@H](C(=O)OCC(C)(C)C2)C2CC1C2 (stereo partly shown) [Compound 8]
### Response 96

###

- target of assay: cyclophilin A (CypA) (Homo sapiens)
- Construct: purchased R&D 3589-CAB
- Sequence (P62937 whole entry): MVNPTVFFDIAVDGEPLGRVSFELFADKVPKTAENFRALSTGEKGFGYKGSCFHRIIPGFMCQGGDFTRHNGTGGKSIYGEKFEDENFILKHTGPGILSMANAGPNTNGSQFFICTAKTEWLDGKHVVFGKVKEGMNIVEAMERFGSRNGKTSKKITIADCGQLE
- method notes: Binary complex binding assay (BLI)
- measurement context: His-tagged CypA, pH 7.4, 1:1 binding model, read-out: kdis (dissociation rate constant)
attribute measured: koff (s⁻¹)
Form entry: value (s⁻¹) — number only.

Solved cases (3 shown):
### Prompt Dear colleague, I am looking for the recorded koff of the following compound: CCn1c(-c2cc(-c3nnc(C4CCN(C5CN(C(C)C)C5)CC4)o3)cnc2[C@H](C)OC)c2c3cc(ccc31)-c1csc(n1)C[C@H](NC(=O)[C@H]1C[C@@H]1C)C(=O)N1CCC[C@H](N1)C(=O)OCC(C)(C)C2 (atropisomer, axis not shown) [Compound 7]
### Response 0.0037

### Prompt Dear colleague, I am looking for the recorded koff of the following compound: CO[C@@H](C)c1ncc(-c2nnc(C3CCN(C4CN(C(C)C)C4)CC3)o2)cc1-c1c2c3cc(ccc3n1CC(F)(F)F)-c1csc(n1)C[C@H](NC(=O)[C@H]1[C@H](C)[C@@H]1C)C(=O)N1CCC[C@H](N1)C(=O)OCC(C)(C)C2 (atropisomer, axis not shown) [Compound 10]
### Response 0.00057

### Prompt Dear colleague, I am looking for the recorded koff of the following compound: CO[C@@H](C)c1ncc(-c2nnc(C3CCN(C4COC4)CC3)o2)cc1-c1c2c3cc(ccc3n1CC(F)(F)F)-c1csc(n1)C[C@H](NC(=O)[C@H]1[C@H](C)[C@@H]1C)C(=O)N1CCC[C@H](N1)C(=O)OCC(C)(C)C2 (atropisomer, axis not shown) [Compound 6]
### Response 0.0004

Attention now shifts to the item below.
### Prompt Dear colleague, I am looking for the recorded koff of the following compound: CCn1c(-c2cc(-c3nc(C4CCN(C5COC5)CC4)n(C)n3)cnc2[C@H](C)OC)c2c3cc(ccc31)-c1csc(n1)C[C@H](NC(=O)[C@H]1[C@H](C)[C@@H]1C)C(=O)N1CCC[C@H](N1)C(=O)OCC(C)(C)C2 (atropisomer, axis not shown) [Compound 4]
### Response 0.00012
